Measured values drawn from ChEMBL document CHEMBL1136210 for this set.

- Organism: Oryctolagus cuniculus
- TEST_SUMMARY: Inhibition of rabbit-osteoclast mediated resorption of dentine slices
pIC50: −log10 of the molar value.
RECORDED_ENDPOINT: pIC50

• Cn1c(=O)c(-c2c(Cl)cccc2Cl)cc2cnc(Nc3cccc(P(=O)(O)CP(=O)(O)O)c3)nc21 = 5.40

[1] CN(C)CCCn1c(=O)c(-c2c(Cl)cccc2Cl)cc2cnc(Nc3ccc(P(=O)(O)CP(=O)(O)O)cc3)nc21
[2] Cn1c(=O)c(-c2c(Cl)cccc2Cl)cc2cnc(Nc3ccc(P(=O)(O)CP(=O)(O)O)cc3)nc21
Request: # argmax over pIC50 for candidates 1 and 2 Please identify the chosen entry by its label.
Result: 1

###

- TARGET_ENTITY: Proto-oncogene tyrosine-protein kinase Src (Homo sapiens)
- Sequence (P12931 2-536 limits assumed): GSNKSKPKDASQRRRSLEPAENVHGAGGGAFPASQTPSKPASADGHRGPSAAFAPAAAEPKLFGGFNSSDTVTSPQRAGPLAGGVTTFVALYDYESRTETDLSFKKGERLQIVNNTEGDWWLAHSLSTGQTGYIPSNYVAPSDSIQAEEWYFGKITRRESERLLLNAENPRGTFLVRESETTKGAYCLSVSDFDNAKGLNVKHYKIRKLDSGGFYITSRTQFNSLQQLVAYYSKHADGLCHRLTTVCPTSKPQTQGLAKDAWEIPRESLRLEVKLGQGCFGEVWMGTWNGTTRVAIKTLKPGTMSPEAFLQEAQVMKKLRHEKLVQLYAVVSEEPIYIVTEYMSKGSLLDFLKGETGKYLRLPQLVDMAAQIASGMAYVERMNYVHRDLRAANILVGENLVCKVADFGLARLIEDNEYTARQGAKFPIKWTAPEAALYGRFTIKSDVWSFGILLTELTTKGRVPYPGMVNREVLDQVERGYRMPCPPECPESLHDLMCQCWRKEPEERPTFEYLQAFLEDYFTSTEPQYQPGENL
RECORDED_ENDPOINT: IC50 (µM)
Reply with just the number (in µM).

Request: Record lookup: for Proto-oncogene tyrosine-protein kinase Src (Homo sapiens), what IC50 belongs to Cn1c(=O)c(-c2c(Cl)cccc2Cl)cc2cnc(Nc3ccccc3)nc21 ?
Result: 0.016
